# Measurement Protocol: Cytotoxicity against BALB/c mouse splenocytes assessed as [3H]thymidine incorporation after 24 hrs by beta counting
# Type: cell-based, Splenocyte
# Details: read-out: LC50
For each record, write down the corresponding log10 CC50 at 24 h.
In our notation, the value equals log10 of CC50 at 24 h in µM.

Would you kindly share the measured log10 CC50 at 24 h for C[C@@]12C[C@H]3OC(=O)[C@@H]1CO[C@@]14O[C@]5([C@H]2C1=O)[C@@](O)(CC[C@H]1[C@H]4C[C@@H](O)[C@@]2(O)CC=CC(=O)[C@]12C)C(=O)O[C@@]35C ?
2.76

Record: C[C@]12C(=O)C=CCC1=CC[C@@H]1[C@@H]2CC[C@]2(O)C(=O)O[C@@]3(C)[C@H]4C[C@]5(C)[C@@H](CO[C@@]16O[C@@]32[C@H]5C6=O)C(=O)O4
1.53

Record: C[C@@]12C[C@H]3OC(=O)[C@@H]1CO[C@]14O[C@]5([C@H]2C1=O)[C@@](O)(CC[C@H]1[C@H]4C[C@H]2O[C@]24CC=CC(=O)[C@]14C)C(=O)O[C@@]35C
1.12

Record: C[C@]12C(=O)C=CC=C1[C@@H](O)C[C@@H]1[C@@H]2CC[C@@]2(O)C(=O)O[C@@]3(C)[C@H]4C[C@]5(C)[C@@H](CO[C@@]16O[C@]23[C@H]5C6=O)C(=O)O4
1.57

Record: OC(c1cc(C(F)(F)F)nc2c(C(F)(F)F)cccc12)C1CCCCN1 (stereo not given)
0.98
